Where do these numbers come from? They come from patent US8399459B2.

// reported pIC50 for each item listed
Target: BACE1 (Homo sapiens, UniProt P56817)
Construct: Human HEK293 cells which are stably transfected with a vector expressing a cDNA of the human APP wt gene (APP695); endogenous in cells
Sequence (P56817 46-501): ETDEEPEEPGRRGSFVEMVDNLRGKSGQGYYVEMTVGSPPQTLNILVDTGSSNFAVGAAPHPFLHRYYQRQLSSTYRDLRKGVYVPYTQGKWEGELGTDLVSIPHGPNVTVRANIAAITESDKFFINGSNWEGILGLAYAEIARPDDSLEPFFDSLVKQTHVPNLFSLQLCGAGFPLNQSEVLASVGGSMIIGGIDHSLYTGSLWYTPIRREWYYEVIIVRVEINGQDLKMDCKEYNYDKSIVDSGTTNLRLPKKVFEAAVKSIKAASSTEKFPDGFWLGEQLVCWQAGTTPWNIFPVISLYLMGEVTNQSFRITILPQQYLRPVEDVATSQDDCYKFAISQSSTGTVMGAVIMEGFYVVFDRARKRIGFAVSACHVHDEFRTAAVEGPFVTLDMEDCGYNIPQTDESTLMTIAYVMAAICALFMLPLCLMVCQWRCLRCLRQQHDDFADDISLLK
Experiment: Cellular Aβ-lowering assay (Aβ40 ELISA, HEK293 cells expressing human APP695)
Conditions: HEK293 cells stably expressing human APP695; Aβ40 in supernatant after 18-20 hrs
Structures can show the parent of a compound that is named as a salt.
Note: pIC50 values are expressed as the negative base-10 logarithm of concentration in M.

Recorded pIC50, per entry:
molecule | pIC50
CC1(c2cccc(-c3cc(Cl)ccc3Cl)c2)COCC(N)=N1 (centres unmarked) | 5.96
CC1(c2cccc(-c3cc(C(F)(F)F)cc(C(F)(F)F)c3)c2)COCC(N)=N1 (centres unmarked) [Example 57, formate] | 5.17
CC1(c2cccc(-c3cc(Cl)cnc3Cl)c2)COCC(N)=N1 (centres unmarked) | 6.31
CC1(c2cc(-c3cncnc3)ccc2F)COCC(N)=N1 (centres unmarked) | 6.01

Name the recorded pIC50 of the item COc1cncc(-c2cccc(C3(C)COCC(N)=N3)c2)c1 (centres unmarked) in your answer.
7.00

----------
Molecular target: CYP3A4 (Homo sapiens)
Sequence (P08684 whole entry): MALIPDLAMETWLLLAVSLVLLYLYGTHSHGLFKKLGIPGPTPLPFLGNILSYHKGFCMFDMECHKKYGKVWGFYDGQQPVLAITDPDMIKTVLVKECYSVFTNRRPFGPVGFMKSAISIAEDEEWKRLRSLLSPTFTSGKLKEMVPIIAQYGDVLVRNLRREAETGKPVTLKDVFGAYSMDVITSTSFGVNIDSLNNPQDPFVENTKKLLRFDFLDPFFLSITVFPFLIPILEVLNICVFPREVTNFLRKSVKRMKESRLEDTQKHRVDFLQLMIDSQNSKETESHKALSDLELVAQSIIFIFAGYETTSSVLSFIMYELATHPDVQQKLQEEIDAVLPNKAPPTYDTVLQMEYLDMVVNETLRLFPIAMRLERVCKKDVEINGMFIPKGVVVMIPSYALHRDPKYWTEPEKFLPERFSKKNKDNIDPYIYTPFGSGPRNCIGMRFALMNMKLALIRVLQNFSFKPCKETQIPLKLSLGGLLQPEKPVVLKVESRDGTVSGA
result-type: IC50

Print CYP3A4 (Homo sapiens) IC50 for CC1(c2cccc(-c3cncnc3)c2)COCC(N)=N1 (stereo not shown) [Example 35] .
> 50 µM

----------
Biological target: P-gp (human MDR1) (Homo sapiens, UniProt P08183)
Construct: host or cells: LLC-PK1 (porcine kidney epithelial cell line)
Sequence (P08183 whole entry): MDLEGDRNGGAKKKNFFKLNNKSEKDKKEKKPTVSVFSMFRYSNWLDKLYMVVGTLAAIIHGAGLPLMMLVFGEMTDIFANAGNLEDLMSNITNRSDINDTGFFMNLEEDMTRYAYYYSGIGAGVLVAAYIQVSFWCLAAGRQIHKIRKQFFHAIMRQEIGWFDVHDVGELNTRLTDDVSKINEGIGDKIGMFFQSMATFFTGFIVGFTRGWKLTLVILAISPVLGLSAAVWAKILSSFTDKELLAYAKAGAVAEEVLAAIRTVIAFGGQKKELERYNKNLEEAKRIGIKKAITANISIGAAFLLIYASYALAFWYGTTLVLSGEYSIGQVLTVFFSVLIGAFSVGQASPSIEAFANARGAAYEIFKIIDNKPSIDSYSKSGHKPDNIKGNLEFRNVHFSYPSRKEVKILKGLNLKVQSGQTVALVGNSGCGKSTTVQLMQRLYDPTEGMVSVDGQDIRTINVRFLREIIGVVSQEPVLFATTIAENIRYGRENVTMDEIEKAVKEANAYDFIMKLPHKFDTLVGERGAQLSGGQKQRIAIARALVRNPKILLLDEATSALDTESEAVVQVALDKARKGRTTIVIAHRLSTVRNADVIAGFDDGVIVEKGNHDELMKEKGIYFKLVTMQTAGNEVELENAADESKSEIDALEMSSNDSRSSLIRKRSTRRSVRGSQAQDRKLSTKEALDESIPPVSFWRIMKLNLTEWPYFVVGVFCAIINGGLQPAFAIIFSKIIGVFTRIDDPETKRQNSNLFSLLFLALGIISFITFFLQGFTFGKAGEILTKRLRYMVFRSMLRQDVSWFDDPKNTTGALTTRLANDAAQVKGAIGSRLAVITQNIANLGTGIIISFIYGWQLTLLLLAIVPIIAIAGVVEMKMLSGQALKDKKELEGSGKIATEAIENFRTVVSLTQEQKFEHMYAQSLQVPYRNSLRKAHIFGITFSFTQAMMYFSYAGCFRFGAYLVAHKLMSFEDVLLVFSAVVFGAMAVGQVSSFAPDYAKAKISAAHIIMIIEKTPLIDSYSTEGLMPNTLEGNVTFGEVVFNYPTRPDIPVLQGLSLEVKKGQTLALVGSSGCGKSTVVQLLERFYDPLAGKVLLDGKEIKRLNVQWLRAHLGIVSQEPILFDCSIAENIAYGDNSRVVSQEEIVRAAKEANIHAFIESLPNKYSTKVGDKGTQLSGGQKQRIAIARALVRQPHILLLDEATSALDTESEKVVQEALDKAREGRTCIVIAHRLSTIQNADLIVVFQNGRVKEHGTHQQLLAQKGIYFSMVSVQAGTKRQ
Assay: p-gp (P-glycoprotein) assay, bidirectional transcellular transport in LLC-PK1 and L-MDR1 cells
Format: in vitro ADME
Conditions: presumably transport efflux ratio (ER)
// reported efflux ratio at 2 h for each item listed
Keep it simple and answer with nothing but the number.

molecule | measured-result
CC1(c2cc(-c3cncnc3)ccc2F)COCC(N)=N1 (centres unmarked) [Example 36] | 11

Okay, next one:
Name the recorded efflux ratio at 2 h of the item CC1(c2cccc(-c3cc(Cl)cc(Cl)c3)c2)COCC(N)=N1 (centres unmarked) [Example 32] in your answer.
1.1

----------
Biological target: CYP2D6 (Homo sapiens)
Sequence (P10635 whole entry): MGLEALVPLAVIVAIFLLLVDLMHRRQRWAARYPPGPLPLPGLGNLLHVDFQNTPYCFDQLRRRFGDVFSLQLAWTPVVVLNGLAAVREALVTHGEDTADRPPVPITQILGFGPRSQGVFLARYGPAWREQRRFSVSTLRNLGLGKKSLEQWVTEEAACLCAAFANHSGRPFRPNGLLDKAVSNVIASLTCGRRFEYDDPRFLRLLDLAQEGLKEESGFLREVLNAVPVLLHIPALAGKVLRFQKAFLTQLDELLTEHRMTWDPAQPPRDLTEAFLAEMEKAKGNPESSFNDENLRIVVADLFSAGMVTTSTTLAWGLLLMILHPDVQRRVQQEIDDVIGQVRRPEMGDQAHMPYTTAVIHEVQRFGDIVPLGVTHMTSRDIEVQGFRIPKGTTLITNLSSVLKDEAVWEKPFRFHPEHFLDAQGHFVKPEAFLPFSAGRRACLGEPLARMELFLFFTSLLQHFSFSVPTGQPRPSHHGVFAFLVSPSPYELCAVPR
result-type: IC50 (µM)
All answers are understood in µM, so give the number only.

Print CYP2D6 (Homo sapiens) IC50 for CC1(c2cccc(-c3cncnc3)c2)COCC(N)=N1 (centres unmarked) [Example 35] .
18

----------
Biological target: BACE1 (Homo sapiens, UniProt P56817)
Construct: Human HEK293 cells which are stably transfected with a vector expressing a cDNA of the human APP wt gene (APP695); endogenous in cells
Assay: Cellular Aβ-lowering assay (Aβ40 ELISA, HEK293 cells expressing human APP695)
Details: HEK293 cells stably expressing human APP695; Aβ40 in supernatant after 18-20 hrs
Where a name gives a salt, the structure may show the parent alone.
// reported log10(IC50) for each item listed
Give log10 of IC50, with IC50 taken in nM.

compound | assayed-target | measured-result
Cc1cc(C2(c3cccc(-c4ccc(Cl)nc4)c3)COCC(N)=N2)ccc1OC(F)F (centres unmarked) [Example 45] | BACE1 (Homo sapiens, UniProt P56817) | 2.56
CC1(c2cccc(-c3ccc4c(c3)OCO4)c2)COCC(N)=N1 (centres unmarked) [Example 22] | BACE1 (Homo sapiens, UniProt P56817) | 3.03
CC1(c2cccc(-c3ccc(F)cc3F)c2)COCC(N)=N1 (centres unmarked) [Example 27] | BACE1 (Homo sapiens, UniProt P56817) | 3.03
NC1=NC(c2ccc(OC(F)F)nc2)(c2cccc(-c3cncc(Cl)c3)c2)COC1 (centres unmarked) [Example 47] | BACE1 (Homo sapiens, UniProt P56817) | 2.04
CC1(c2cccc(-c3cccc(CC#N)c3)c2)COCC(N)=N1 (centres unmarked) [Example 17] | BACE1 (Homo sapiens, UniProt P56817) | 3.03
NC1=NC(c2cc(-c3cncnc3)ccc2F)(C(F)F)COC1 (centres unmarked) [Example 51] | BACE1 (Homo sapiens, UniProt P56817) | 2.89
NC1=NC(c2cc(-c3cncc(Cl)c3)ccc2F)(C(F)F)COC1 (centres unmarked) [Example 52] | BACE1 (Homo sapiens, UniProt P56817) | 2.45
Cn1ncc2c(-c3cccc(C4(C)COCC(N)=N4)c3)cccc21 (centres unmarked) [Example 23] | BACE1 (Homo sapiens, UniProt P56817) | 3.56

Name the recorded log10(IC50) of the item CC1(c2cccc(-c3cc(Cl)cc(Cl)c3Cl)c2)COCC(N)=N1 (centres unmarked) [Example 6] in your answer.
3.61

Name the recorded log10(IC50) of the item Cc1cc(-c2cccc(C3(C)COCC(N)=N3)c2)ccc1Cl (centres unmarked) [Example 26] in your answer.
4.11

Name the recorded log10(IC50) of the item CC1(c2cccc(-c3cc(F)cc(F)c3)c2)COCC(N)=N1 (centres unmarked) [Example 28] in your answer.
3.32

Name the recorded log10(IC50) of the item CC1(c2cccc(-c3cccnc3F)c2)COCC(N)=N1 (centres unmarked) [Example 39] in your answer.
2.45

Name the recorded log10(IC50) of the item Cc1cc(Cl)cc(-c2cccc(C3(C)COCC(N)=N3)c2)c1F (centres unmarked) [Example 10] in your answer.
3.18

Name the recorded log10(IC50) of the item CC1(c2cccc(-c3cc(Cl)cc(C(=O)N4CCOCC4)c3)c2)COCC(N)=N1 (centres unmarked) [Example 13] in your answer.
3.38

Name the recorded log10(IC50) of the item CC1(c2cccc(-c3ccc(F)c(OCC(F)(F)F)c3)c2)COCC(N)=N1 (centres unmarked) [Example 58, formate] in your answer.
3.92

Name the recorded log10(IC50) of the item CC1(c2cccc(-c3ccc4[nH]ccc4c3)c2)COCC(N)=N1 (centres unmarked) [Example 25] in your answer.
3.81

Name the recorded log10(IC50) of the item CC1(c2cccc(C#Cc3ccsc3)c2)COCC(N)=N1 (centres unmarked) [Example 55] in your answer.
3.44

Name the recorded log10(IC50) of the item CC1(c2cccc(-c3cccc(Cl)c3)c2)COCC(N)=N1 (centres unmarked) [Example 4] in your answer.
2.59

Name the recorded log10(IC50) of the item CC(C)(C)c1ccc(-c2cccc(C3(C)COCC(N)=N3)c2)cc1 (centres unmarked) [Example 18, formate] in your answer.
3.79

Name the recorded log10(IC50) of the item CC1(c2cccc(-c3ccc(F)cc3)c2)COCC(N)=N1 (centres unmarked) [Example 2] in your answer.
3.07

Name the recorded log10(IC50) of the item CCOc1cccc(-c2cccc(C3(C)COCC(N)=N3)c2)c1 (centres unmarked) [Example 30] in your answer.
3.96

Name the recorded log10(IC50) of the item CC1(c2cccc(-c3cc4ccc(Cl)cc4[nH]3)c2)COCC(N)=N1 (centres unmarked) [Example 24] in your answer.
4.10

Name the recorded log10(IC50) of the item COc1cc(Cl)cc(-c2cccc(C3(C)COCC(N)=N3)c2)c1 (centres unmarked) [Example 8] in your answer.
3.17

Name the recorded log10(IC50) of the item CC1(c2cccc(C#Cc3ccccc3)c2)COCC(N)=N1 (centres unmarked) [Example 54] in your answer.
3.17

Name the recorded log10(IC50) of the item CC1(c2cccc(-c3cc(Cl)cc(C(F)(F)F)c3)c2)COCC(N)=N1 (centres unmarked) [Example 11] in your answer.
3.26

Name the recorded log10(IC50) of the item COc1cc(-c2cccc(C3(C)COCC(N)=N3)c2)cc(F)c1F (centres unmarked) [Example 56, formate] in your answer.
3.41

Name the recorded log10(IC50) of the item COCC#Cc1cccc(C2(C)COCC(N)=N2)c1 (centres unmarked) [Example 42] in your answer.
3.03

Name the recorded log10(IC50) of the item CC1(c2ccc(F)c(-c3cc(Cl)cc(Cl)c3)c2)COCC(N)=N1 (centres unmarked) [Example 31] in your answer.
3.00

Name the recorded log10(IC50) of the item CC1(c2cccc(-c3cccc(C#N)c3)c2)COCC(N)=N1 (centres unmarked) [Example 16] in your answer.
2.45

Name the recorded log10(IC50) of the item CC1(c2cccc(-c3cccc(OC(F)(F)F)c3)c2)COCC(N)=N1 (centres unmarked) [Example 15] in your answer.
3.36

Name the recorded log10(IC50) of the item CC1(c2cccc(-c3cc(Cl)cc(Cl)c3)c2)COCC(N)=N1 (centres unmarked) [Example 32] in your answer.
3.18

Name the recorded log10(IC50) of the item Cc1cc(Cl)cc(-c2cccc(C3(C)COCC(N)=N3)c2)c1 (centres unmarked) [Example 9] in your answer.
3.39

Name the recorded log10(IC50) of the item CC1(c2cccc(-c3nc4ccc(Cl)cc4o3)c2)COCC(N)=N1 (centres unmarked) [Example 49] in your answer.
2.30
